Target: T1, PUF4 RNA-binding domain (Saccharomyces cerevisiae, UniProt P25339 537-888)
T1 sequence: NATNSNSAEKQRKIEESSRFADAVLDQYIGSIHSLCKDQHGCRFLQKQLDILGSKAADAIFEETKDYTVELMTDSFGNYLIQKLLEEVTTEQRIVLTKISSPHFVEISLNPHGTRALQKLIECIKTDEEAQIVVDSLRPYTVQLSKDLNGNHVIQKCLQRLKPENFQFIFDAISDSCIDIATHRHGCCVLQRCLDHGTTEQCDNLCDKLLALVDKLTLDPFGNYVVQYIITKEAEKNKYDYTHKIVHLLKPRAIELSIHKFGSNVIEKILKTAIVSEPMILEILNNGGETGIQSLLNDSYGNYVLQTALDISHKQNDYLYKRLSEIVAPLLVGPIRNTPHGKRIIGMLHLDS
Experiment: Mg; RNA-MaP; 20 mM Na-HEPES pH 7.4, 30 mM KOAc, 0.75 mM MgCl2, 0.1% Tween-20, 5% glycerol, 0.1 mg/mL BSA, 2 mM DTT; 25 C; 0.0125-409.6 nM protein
Conditions: tags: N-His6-TEV cleaved; C-SNAP kept, Cy3B-labelled; label: tethered on chip by stalled RNA polymerase
Answer each item with its documented Kd.
// note: answer is a bare numeric in nM

Inquiry: Returns the measured Kd for the input binder. Input: UCUCUUCAUAUAUAUUACUUCUCUU (ssRNA) [Id_ii_S1_P4E.3_K4.2_C4.2_[T-1A]_H4.2_A4.1_F4.1_T4.2_[G10C]]
Reply text: 21

Inquiry: Returns the measured Kd for the input binder. Input: Id_iii_S2_P4E.8_K4.4_C4.3_H4.1_A4.2_F4.1_T4.2_[G10C] (ssRNA) RNA: UUUGAUUAAUAUGAUAUCGUUCUUUCUUCUUGUAUUUUACUUUCUUUCUCGAUAUCAUAUUAAUCUUU
Reply text: 2.77

Inquiry: Returns the measured Kd for the input binder. Input: Ic_S2_P3E.1_K3.1_C3.1_H3.1_A3.1_[A6T]_F3.1_[T7C]_T3.1 (ssRNA) RNA: UUUGAUUAAUAUGAUAUCGUUCUUUCUUGUAUUCAUUCUUUCUCGAUAUCAUAUUAAUCUUU
Reply text: 114

Inquiry: Returns the measured Kd for the input binder. Input: UCUCUUUGUAACAUUCUCUCUU (ssRNA) [Ic_S1_P5E.1_K5.1_C5.1_H5.1_A5.1_[T5A]_[T6C]_F5.1_[A10C]_T5.1]
Reply text: 15

Inquiry: Returns the measured Kd for the input binder. Input: UCUCUUUGUAUGAUUAUCUCUU (ssRNA) [Ia_S1_P5E.1_K5.1_C5.1_H5.1_A5.1_[T6G]_F5.1_T5.1]
Reply text: 23

Inquiry: Returns the measured Kd for the input binder. Input: Id_ii_S2_P4E.3_K4.2_C4.2_[T-1A]_H4.2_A4.1_F4.1_T4.2_[G10A]_[T11A] (ssRNA) RNA: UUUGAUUAAUAUGAUAUCGUUCUUUCUCAUAUAUAUUAAAUUCUUUCUCGAUAUCAUAUUAAUCUUU
Reply text: 37.6

Values compiled from paper PMC9352680.
